- Test system: Malme-3M
- MEASUREMENT DESCRIPTION: NCI tumour cell line growth inhibition, 48 h
Calls of active or inactive are those of the source. Cut-off read from the data, not from the text of the source: active = GI50 up to about 1.1 µM and inactive = higher.
Here, each record is paired with measured GI50 data.

Known GI50 results, listed for orientation:
COMPOUND | GI50
c1ccc([P+](c2ccccc2)(c2ccccc2)c2ccc(-c3ccc([P+](c4ccccc4)(c4ccccc4)c4ccccc4)cc3)cc2)cc1 | 25.3 µM (inactive)
COC(=O)c1ccccc1NC(=O)/C(=N\NC(C)(C)C)C(C#N)c1nc(-c2ccc([N+](=O)[O-])cc2)cs1 (stereo unspecified) | > 100 µM (inactive)
CC(=O)OCC1OC(Nc2ncc(-c3ccc(C)cc3)s2)C(OC(C)=O)C(OC(C)=O)C1OC(C)=O (stereo unspecified) | 61.5 µM (inactive)
O=C1C(NS(=O)(=O)c2ccccc2)=C(n2ccnc2)C(=O)c2ccccc21 | 96.4 µM (inactive)
CC(C)(CN1CCCCC1)C(=O)/C=C/c1ccc(Cl)cc1 | 5.06 µM (inactive)

# input compound: CC(C)=C[C@@H]1C[C@H](n2cc(C)c(=O)[nH]c2=O)ON1CCO ; wanted: its GI50 > 100 µM (inactive)

# input compound: Cc1ccc(C(=O)Cc2nc3c([nH]c2=O)c(C)nn3-c2ccccc2)c(C)c1 ; wanted: its GI50 > 10 µM (inactive)

# input compound: CCCCCCSc1nc(N)nc2nc[nH]c12 ; wanted: its GI50 35.7 µM (inactive)

# input compound: C#CCNCC(=O)O ; wanted: its GI50 > 100 µM (inactive)

# input compound: CC1(C)CN=C(Nc2ccc(F)cc2)S1 ; wanted: its GI50 > 100 µM (inactive)

# input compound: CCOc1ncnc2ccc(Cl)c(I)c12 ; wanted: its GI50 > 100 µM (inactive)

---

- Tested on: HCT-15
- MEASUREMENT DESCRIPTION: NCI tumour cell line growth inhibition, 48 h
MEASURED ATTRIBUTE: GI50

Known GI50 results, listed for orientation:
SUBSTANCE SMILES | GI50
COc1cccc(/N=C/c2cc3cc(Br)ccc3nc2Cl)c1 | 35.3 µM
O=C(c1ccccc1)c1ccc(N2C(=O)/C(=C/Cc3ccco3)N=C2c2ccccc2)c(N2C(=O)/C(=C/Cc3ccco3)N=C2c2ccccc2)c1 | 45 µM
Cn1c(N)nc(-c2ccc(Cl)cc2)c1SSc1c(-c2ccc(Cl)cc2)nc(N)n1C | 1.77 µM
O=C1CCSC(=S)N1c1ccc(Br)c(Cl)c1 | 20.4 µM

# next compound below
# input compound: C#CCNCC(=O)O ; wanted: its GI50 > 100 µM

---

- Test system: HT-29
- MEASUREMENT DESCRIPTION: NCI tumour cell line growth inhibition, 48 h
The source made the active and inactive calls. No stated cut-off is given here; in the data, active = GI50 up to about 1.1 µM and inactive = higher.
Assign a class; possible classes are yes (1) = active, no (0) = inactive

Sample answers from the record:
SUBSTANCE SMILES | CLASSIFICATION
CN1CCC(OC(=O)Oc2ccccc2)(c2ccccc2)CC1 | no (0)
CC1=C[C@@H](C)C[C@]2(C)CC[C@H](O2)[C@]23CC[C@](C(=O)O)(C[C@H](O2)[C@@H]2O[C@@](C)(CC2=O)[C@@H](O)[C@H]2CC[C@@]4(CCC[C@@H](O4)[C@H](C)C(=O)O[C@H]4C[C@H]([C@]5(O)OCC[C@H](C)[C@@H]5O)O[C@H]4C=C1)O2)O3 | no (0)
CN(CCn1cnc2c1c(=O)n(C)c(=O)n2C)C1CCCCC1 | no (0)

Dear colleague, could you share the recorded outcome for CN(C)c1ccc(C=c2c3ccccc3n3c2cc(-c2ccc(Cl)cc2)[n+]3C)cc1 when you have a moment? yes (1)

Dear colleague, could you share the recorded outcome for Cc1ccc(N(C)S(=O)(=O)c2ccc([N+](=O)[O-])cc2)cc1 when you have a moment? no (0)

Dear colleague, could you share the recorded outcome for C=CC[C@H]1[C@@H](O[Si](C)(C)C(C)(C)C)[C@H](n2ccc(=O)[nH]c2=O)O[C@@H]1CO[Si](C)(C)C(C)(C)C when you have a moment? no (0)

Dear colleague, could you share the recorded outcome for CCOc1ccc(/N=N/c2ccc3cc(/C(C)=N/NC(=O)/C(C#N)=C\c4ccc(N(CCC#N)CCC#N)cc4)c(=O)oc3c2)cc1 when you have a moment? no (0)
